Field log10 IC50: reported value for Corticotropin-releasing factor receptor 1 (Rattus norvegicus, UniProt P35353); entries drawn from several documents.
Quick note: numbers are log10 of IC50, with nM as the unit.

Ask: Give reported log10 IC50 value for COc1nc(C)c(Nc2nc(Cl)cn([C@H](COC(=O)Nc3ccccc3)C3CC3)c2=O)cc1C
Result: 0.18

Ask: Give reported log10 IC50 value for COCC(C1CC1)n1nc(C)nc(Nc2c(Cl)cc(OC(F)(F)F)cc2Cl)c1=O (stereo unspecified)
Result: 1.04

Ask: Give reported log10 IC50 value for CCCCN(CC)c1nc(C)nc2c1NC(=O)CN2c1ccc(C(C)=O)cc1C
Result: 2.85

Ask: Give reported log10 IC50 value for COc1ccc(Nc2nc(Cl)cn([C@H](C)C3CC3)c2=O)c(OC)n1
Result: 1.23

Ask: Give reported log10 IC50 value for COC[C@H](C)n1cc(Cl)nc(Nc2cc(C)c(OC)cc2C)c1=O
Result: 0.76

Ask: Give reported log10 IC50 value for COc1cc(C)c(Nc2nc(Cl)cn([C@@H](CO)C3CC3)c2=O)cc1C
Result: 1.00

Ask: Give reported log10 IC50 value for CCCC(CCC)n1c(CC)nc2c1c(=O)n(C)c(=O)n2-c1ccc(Cl)cc1Cl
Result: 1.88

Ask: Give reported log10 IC50 value for CCCN(CCOC)c1cc(C)nc2c1NC(=O)CN2c1ccc(C(C)C)cc1Cl
Result: 0.41

Ask: Give reported log10 IC50 value for CCC(CC)Oc1cc(C)nc(Oc2c(C)cc(O)cc2C)c1C
Result: 3.15

Ask: Give reported log10 IC50 value for CCCCN(CC)c1cc(C)nc2c1NC(=O)CN2c1ccc(C#N)cc1Cl
Result: 0.34

Ask: Give reported log10 IC50 value for CCN(CCCC#N)c1cc(C)nc2c1NC(=O)CN2c1ccc(OC)cc1C
Result: 1.96

Ask: Give reported log10 IC50 value for COc1ccc(Nc2nc(C)nn([C@H](C)C3CC3)c2=O)c(C(F)(F)F)n1
Result: 0.54

Ask: Give reported log10 IC50 value for COCCN(CCCF)c1nc(C)nc2c(-c3ccc(OC)nc3C)c(C)nn12
Result: 0.28

Ask: Give reported log10 IC50 value for COc1nc(C)c(Nc2nc(Cl)cn([C@H](COC(C)=O)C3CC3)c2=O)cc1C
Result: 0.72

Ask: Give reported log10 IC50 value for CCc1nc2c(n1C(CC)CC)C(=O)N(C)CN2c1ccc(Cl)cc1Cl
Result: 2.05

Ask: Give reported log10 IC50 value for COc1cc(C)c(Nc2nc(Cl)cn([C@H](C)C3CC3)c2=O)cc1C
Result: -0.38

Ask: Give reported log10 IC50 value for CCc1nc2c(n1Cc1ccc(OC)cc1)C(=O)N(C)CN2c1ccc(Cl)cc1Cl
Result: 2.66

Ask: Give reported log10 IC50 value for Cc1nc(Nc2c(Cl)cc(OC(F)F)cc2Cl)c(=O)n([C@H](C)C2CC2)n1
Result: 1.11

Ask: Give reported log10 IC50 value for COc1cc(Cl)c(Nc2nc(C)nn(C(C)C3CC3)c2=O)c(Cl)c1 (stereo unspecified)
Result: 1.18

Ask: Give reported log10 IC50 value for CCCC(CCC)n1c(CC)nc2c1C(=O)N(C)CN2c1ccc(C(C)C)cc1Cl
Result: 1.70

Ask: Give reported log10 IC50 value for CCc1nc2c(n1Cc1ccc(-c3ccccc3)cc1)C(=O)N(C)CN2c1ccc(Cl)cc1Cl
Result: 2.51

Ask: Give reported log10 IC50 value for COc1nc(C)c(Nc2nc(Cl)cn([C@H](COC(=O)Nc3ccccc3Cl)C3CC3)c2=O)cc1C
Result: 0.18

Ask: Give reported log10 IC50 value for COc1cc(Cl)c(Nc2nc(C)nn([C@H](C)C3CC3)c2=O)c(Cl)c1
Result: 0.92

Ask: Give reported log10 IC50 value for COC[C@@H](C1CC1)n1cc(Cl)nc(Nc2c(C)cc(C)cc2C)c1=O
Result: 0.11

Ask: Give reported log10 IC50 value for CCOc1cc(C)c(Nc2nc(C)nn(C(C)C3CC3)c2=O)cc1C (stereo unspecified)
Result: 1.45

Ask: Give reported log10 IC50 value for COC[C@H](C1CC1)n1cc(Cl)nc(Nc2ccc(OC(F)F)nc2C)c1=O
Result: 0.08

Ask: Give reported log10 IC50 value for COC[C@H](C1CC1)n1nc(C)nc(Nc2ccc(OC)nc2C(F)(F)F)c1=O
Result: 1.18

Ask: Give reported log10 IC50 value for COCC(C1CC1)n1nc(C)nc(Nc2c(Cl)cc(OC(F)F)cc2Cl)c1=O (stereo unspecified)
Result: 0.80

Ask: Give reported log10 IC50 value for COc1cc(C)c(Nc2nc(C)nn(C(C)C3CC3)c2=O)cc1C (stereo unspecified)
Result: 0.70

Ask: Give reported log10 IC50 value for CCOc1ccc(Nc2nc(C)nn([C@@H](C)C3CC3)c2=O)c(C(F)(F)F)n1
Result: 1.36

Ask: Give reported log10 IC50 value for CCOc1ccc(Nc2nc(C)nn(C(CC)C3CC3)c2=O)c(C(F)(F)F)n1 (stereo unspecified)
Result: 0.56

Ask: Give reported log10 IC50 value for CCCCN(CC)c1cc(C)nc2c1NC(=O)CN2c1ccc(Cl)cc1Cl
Result: -0.31

Ask: Give reported log10 IC50 value for Cc1cc(C)c(Nc2nc(Cl)cn([C@H](C)C3CC3)c2=O)c(C)n1
Result: 1.81

Ask: Give reported log10 IC50 value for CCC(CC)Oc1cc(C)nc(Oc2c(C)cc(OC(C)C)cc2C)c1C
Result: 2.04

Ask: Give reported log10 IC50 value for C[C@@H](C1CC1)n1cc(Cl)nc(Nc2c(Cl)cc(OC(F)F)cc2Cl)c1=O
Result: 0.00

Ask: Give reported log10 IC50 value for CCCC(CCC)n1c(CC)nc2c1C(=O)N(C)CN2c1ccc(Cl)cc1Cl
Result: 0.73

Ask: Give reported log10 IC50 value for COc1cc(Cl)c(Nc2nc(C#N)cn([C@@H](COCCF)C3CC3)c2=O)c(Cl)c1
Result: 0.89

Ask: Give reported log10 IC50 value for COCC(COC)n1cc(Cl)nc(Nc2c(Cl)cc(OC)cc2Cl)c1=O
Result: 0.70

Ask: Give reported log10 IC50 value for CCC(CC)Oc1cc(C)nc(Oc2c(C)cc(C)nc2C)c1C
Result: 1.00

Ask: Give reported log10 IC50 value for COc1ccc(Nc2nc(C)nn(C(C)C3CC3)c2=O)c(C(F)(F)F)n1 (stereo unspecified)
Result: 0.83

Ask: Give reported log10 IC50 value for CCCCN(CC)c1cc(C)nc2c1NCCN2c1ccc(OC)cc1C
Result: 0.62
